Measured Kd by item
# Tested On: KBTBD4^WT with CoREST1^NT2-HDAC2 (ternary complex) (Homo sapiens, UniProt Q92769+Q9NVX7)
# Construct: FLAG-KBTBD4 17-534 (near full length, dimer, N-terminal 3xFLAG); untagged full-length HDAC2 1-488 co-expressed with CoREST1 ELM2-SANT1 71-259 carrying C-terminal FLAG/10xHis; Expi293F; purified; complexes 2:1:1, also 2:1 and 2:2 KBTBD4:HDAC2 by cryo-EM; with REST corepressor 1
# Sequence (Q9NVX7 17-534): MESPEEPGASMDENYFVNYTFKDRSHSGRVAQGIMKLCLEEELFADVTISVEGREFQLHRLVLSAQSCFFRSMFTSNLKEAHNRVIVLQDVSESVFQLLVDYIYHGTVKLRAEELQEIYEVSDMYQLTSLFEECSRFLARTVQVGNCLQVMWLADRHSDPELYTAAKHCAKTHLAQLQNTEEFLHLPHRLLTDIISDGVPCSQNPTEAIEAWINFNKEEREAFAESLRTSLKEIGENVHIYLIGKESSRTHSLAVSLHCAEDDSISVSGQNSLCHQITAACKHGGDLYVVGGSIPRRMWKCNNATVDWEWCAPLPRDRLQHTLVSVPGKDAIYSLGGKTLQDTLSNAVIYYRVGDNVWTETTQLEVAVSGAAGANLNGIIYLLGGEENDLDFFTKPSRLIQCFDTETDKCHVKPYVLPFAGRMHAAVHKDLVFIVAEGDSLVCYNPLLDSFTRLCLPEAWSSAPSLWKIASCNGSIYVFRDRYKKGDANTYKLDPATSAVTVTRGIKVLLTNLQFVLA
# Sequence (Q92769 whole entry): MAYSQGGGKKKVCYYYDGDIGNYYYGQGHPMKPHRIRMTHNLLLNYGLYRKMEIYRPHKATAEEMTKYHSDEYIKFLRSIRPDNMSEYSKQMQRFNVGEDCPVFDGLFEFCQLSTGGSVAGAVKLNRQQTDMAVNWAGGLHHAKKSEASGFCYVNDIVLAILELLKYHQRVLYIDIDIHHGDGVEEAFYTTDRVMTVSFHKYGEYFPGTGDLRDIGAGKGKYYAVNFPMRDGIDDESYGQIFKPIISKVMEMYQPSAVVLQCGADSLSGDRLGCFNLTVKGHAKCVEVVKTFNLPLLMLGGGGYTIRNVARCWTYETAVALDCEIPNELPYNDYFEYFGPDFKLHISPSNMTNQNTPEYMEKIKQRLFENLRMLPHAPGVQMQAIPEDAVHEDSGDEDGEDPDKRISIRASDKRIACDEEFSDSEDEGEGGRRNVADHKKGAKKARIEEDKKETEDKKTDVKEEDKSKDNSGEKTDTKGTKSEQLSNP
# Sequence (Q9UKL0 71-259 partner): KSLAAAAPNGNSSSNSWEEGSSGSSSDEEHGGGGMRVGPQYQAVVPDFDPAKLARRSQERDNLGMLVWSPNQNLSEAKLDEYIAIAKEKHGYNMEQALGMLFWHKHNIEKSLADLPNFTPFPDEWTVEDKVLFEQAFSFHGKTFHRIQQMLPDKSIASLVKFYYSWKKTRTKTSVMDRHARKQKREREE
# Method Notes: microscale thermophoresis, labelled KBTBD4 WT
Give the number; µM is assumed, so skip it.

Molecule	Kd / µM
COC(=O)c1ccc2c(c1)[nH]c1nc(Cc3ccccc3)nc(NCCCN3CCCC3)c12 [compound 13, S234984]	2.3

Challenge: Under KBTBD4^WT with CoREST1^NT2-HDAC2 (ternary complex) (Homo sapiens, UniProt Q92769+Q9NVX7): Kd value of Cn1cc(-c2ccc3c(c2)[nH]c2nc(Cc4ccccc4)nc(NC4CCC(N)CC4)c23)cn1 (centres unmarked) [compound 2, compound (2)] ?
Response given: 26
